Listed next: entries and their corresponding %max.
target: Melanocortin receptor 5 (Homo sapiens); assay: Activity against hMC5R transfected in HEK293 cells by intracellular cAMP accumulation; format: functional, cell-based
Sequence (P33032 whole entry): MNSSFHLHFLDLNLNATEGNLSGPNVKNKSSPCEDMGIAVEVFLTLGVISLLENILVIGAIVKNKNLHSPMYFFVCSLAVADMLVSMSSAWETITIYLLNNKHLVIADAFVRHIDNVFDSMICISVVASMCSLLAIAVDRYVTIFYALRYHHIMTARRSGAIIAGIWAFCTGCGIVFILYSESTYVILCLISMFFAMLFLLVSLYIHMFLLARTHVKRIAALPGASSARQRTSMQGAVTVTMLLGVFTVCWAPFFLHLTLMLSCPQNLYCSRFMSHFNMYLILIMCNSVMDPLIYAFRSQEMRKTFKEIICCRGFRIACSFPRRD

{"mol": "CCCC[C@@H]1NC(=O)CC[C@@H](C(N)=O)NC(=O)[C@H](Cc2c[nH]c3ccccc23)NC(=O)[C@H](CCCN=C(N)N)NC(=O)[C@@H](Cc2ccc3ccccc3c2)NC(=O)[C@H](CCC(N)=O)NC1=O", "tested system": "Melanocortin receptor 5 (Homo sapiens)", "reading unit": "%", "%max": 0}
{"mol": "CCCC[C@@H]1NC(=O)CC[C@@H](C(N)=O)NC(=O)[C@H](Cc2c[nH]c3ccccc23)NC(=O)[C@H](CCCN=C(N)N)NC(=O)[C@@H](Cc2ccccc2)NC(=O)[C@@H](CCCN=C(N)N)NC1=O", "tested system": "Melanocortin receptor 5 (Homo sapiens)", "reading unit": "%", "%max": 0}
{"mol": "CCCC[C@@H]1NC(=O)CC[C@@H](C(N)=O)NC(=O)[C@H](Cc2c[nH]c3ccccc23)NC(=O)[C@H](CCCN=C(N)N)NC(=O)[C@@H](Cc2ccccc2)NC(=O)[C@H](CC(=O)O)NC1=O", "tested system": "Melanocortin receptor 5 (Homo sapiens)", "reading unit": "%", "%max": 0}
{"mol": "CCCC[C@@H]1NC(=O)CC[C@@H](C(N)=O)NC(=O)[C@H](Cc2c[nH]c3ccccc23)NC(=O)[C@H](CCCN=C(N)N)NC(=O)[C@@H](Cc2ccc3ccccc3c2)NC(=O)[C@@H](CCCN=C(N)N)NC1=O", "tested system": "Melanocortin receptor 5 (Homo sapiens)", "reading unit": "%", "%max": 0}
{"mol": "CCCC[C@@H]1NC(=O)CC[C@@H](C(N)=O)NC(=O)[C@H](Cc2c[nH]c3ccccc23)NC(=O)[C@H](CCCN=C(N)N)NC(=O)[C@@H](Cc2ccccc2)NC(=O)[C@H](Cc2c[nH]cn2)NC1=O", "tested system": "Melanocortin receptor 5 (Homo sapiens)", "reading unit": "%", "%max": 0}
{"mol": "CCCC[C@@H]1NC(=O)CC[C@@H](C(N)=O)NC(=O)[C@H](Cc2c[nH]c3ccccc23)NC(=O)[C@H](CCCN=C(N)N)NC(=O)[C@@H](Cc2ccc3ccccc3c2)NC(=O)[C@@H]2CCCN2C1=O", "tested system": "Melanocortin receptor 5 (Homo sapiens)", "reading unit": "%", "%max": 0}
{"mol": "CCCC[C@@H]1NC(=O)CC[C@@H](C(N)=O)NC(=O)[C@H](Cc2c[nH]c3ccccc23)NC(=O)[C@H](CCCN=C(N)N)NC(=O)[C@@H](Cc2ccc3ccccc3c2)NC(=O)[C@@H](CC(=O)O)NC1=O", "tested system": "Melanocortin receptor 5 (Homo sapiens)", "reading unit": "%", "%max": 0}
{"mol": "CCCC[C@@H]1NC(=O)CC[C@@H](C(N)=O)NC(=O)[C@H](Cc2c[nH]c3ccccc23)NC(=O)[C@H](CCCN=C(N)N)NC(=O)[C@@H](Cc2ccc3ccccc3c2)NC(=O)[C@H](Cc2c[nH]cn2)NC1=O", "tested system": "Melanocortin receptor 5 (Homo sapiens)", "reading unit": "%", "%max": 0}
{"mol": "CCCC[C@@H]1NC(=O)CC[C@@H](C(N)=O)NC(=O)[C@H](Cc2c[nH]c3ccccc23)NC(=O)[C@H](CCCN=C(N)N)NC(=O)[C@@H](Cc2ccc3ccccc3c2)NC(=O)[C@H](CCC(=O)O)NC1=O", "tested system": "Melanocortin receptor 5 (Homo sapiens)", "reading unit": "%", "%max": 0}
{"mol": "CCCC[C@@H]1NC(=O)CC[C@@H](C(N)=O)NC(=O)[C@H](Cc2c[nH]c3ccccc23)NC(=O)[C@H](CCCN=C(N)N)NC(=O)[C@@H](Cc2ccccc2)NC(=O)[C@H](C(C)C)NC1=O", "tested system": "Melanocortin receptor 5 (Homo sapiens)", "reading unit": "%", "%max": 75}
{"mol": "CCCC[C@@H]1NC(=O)CC[C@@H](C(N)=O)NC(=O)[C@H](Cc2c[nH]c3ccccc23)NC(=O)[C@H](CCCN=C(N)N)NC(=O)[C@@H](Cc2ccc3ccccc3c2)NC(=O)[C@H](CCCC)NC1=O", "tested system": "Melanocortin receptor 5 (Homo sapiens)", "reading unit": "%", "%max": 10}
{"mol": "CCCC[C@@H]1NC(=O)CC[C@@H](C(N)=O)NC(=O)[C@H](Cc2c[nH]c3ccccc23)NC(=O)[C@H](CCCN=C(N)N)NC(=O)[C@@H](Cc2ccc3ccccc3c2)NC(=O)[C@H](C(C)C)NC1=O", "tested system": "Melanocortin receptor 5 (Homo sapiens)", "reading unit": "%", "%max": 0}
{"mol": "CCCC[C@@H]1NC(=O)CC[C@@H](C(N)=O)NC(=O)[C@H](Cc2c[nH]c3ccccc23)NC(=O)[C@H](CCCN=C(N)N)NC(=O)[C@@H](Cc2ccccc2)NC(=O)[C@@H](CCC(=O)O)NC1=O", "tested system": "Melanocortin receptor 5 (Homo sapiens)", "reading unit": "%", "%max": 0}
{"mol": "CCCC[C@@H]1NC(=O)CC[C@@H](C(N)=O)NC(=O)[C@H](Cc2c[nH]c3ccccc23)NC(=O)[C@H](CCCN=C(N)N)NC(=O)[C@@H](Cc2ccccc2)NC(=O)[C@@H](CCC(N)=O)NC1=O", "tested system": "Melanocortin receptor 5 (Homo sapiens)", "reading unit": "%", "%max": 8}
{"mol": "CCCC[C@@H]1NC(=O)CC[C@@H](C(N)=O)NC(=O)[C@H](Cc2c[nH]c3ccccc23)NC(=O)[C@H](CCCN=C(N)N)NC(=O)[C@@H](Cc2ccccc2)NC(=O)[C@H]2CCCN2C1=O", "tested system": "Melanocortin receptor 5 (Homo sapiens)", "reading unit": "%", "%max": 10}
{"mol": "CCCC[C@@H]1NC(=O)CC[C@@H](C(N)=O)NC(=O)[C@H](Cc2c[nH]c3ccccc23)NC(=O)[C@H](CCCN=C(N)N)NC(=O)[C@@H](Cc2ccccc2)NC(=O)[C@H](CCCC)NC1=O", "tested system": "Melanocortin receptor 5 (Homo sapiens)", "reading unit": "%", "%max": 0}
